protein stability index for assorted variants
B1: ZNF649 (parent)
chain: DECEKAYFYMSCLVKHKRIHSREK

variants of: B1; assay: protein stability index of a GFP-peptide fusion (GPS, HEK-293T) (PSI 1-6); higher = more stable; conditions: c terminus: a fixed tail appended;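 also: lentivirally expressed fusions sorted by FACS into six bins by GFP to DsRed ratio, PSI derived from sequencing read proportions per bin multiplied by bin number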
Answer using only a numeral; do not append any unit.

Known results for variants:
K24V :: 2.05
K17W :: 2

Now look at this one.
Q. What value of protein stability index has been reported for the following variant? E4W
A. 1.99
